Attribution: patent US11286247B2

Experiment: Aqueous solubility assay
Assay type: physicochemical
Settings: simulated gastric fluid, thermodynamic from solid; HCl solution of pH 1.2, shaken three days, HPLC; read-out: Solubility, HCl solution of pH 1.2
// reported solubility at 3 days per item
Quick reminder: number only, in mg/mL, skip the unit.

Before answering, review these 4 worked examples.
INSERT INTO assay_data (molecule, experimental_endpoint, unit, reading) VALUES
  ('O=C(/C=C\n1cnc(-c2cc(C(F)(F)F)cc(C(F)(F)F)c2)n1)N1CCC(=O)N1CC1CC1 [Compound 72]', 'solubility at 3 days', 'mg/mL', 0.0274),
  ('O=C(/C=C\n1cnc(-c2cc(C(F)(F)F)cc(C(F)(F)F)c2)n1)NN1CCCC1=O [Compound 2]', 'solubility at 3 days', 'mg/mL', 0.0146),
  ('COCCN1C(=O)CCN1C(=O)/C=C\n1cnc(-c2cc(C(F)(F)F)cc(C(F)(F)F)c2)n1 [Compound 71]', 'solubility at 3 days', 'mg/mL', 0.147),
  ('COC1=CC(=O)N(NC(=O)/C=C\n2cnc(-c3cc(C(F)(F)F)cc(C(F)(F)F)c3)n2)C1 [Compound 79]', 'solubility at 3 days', 'mg/mL', 0.00854);

The molecule listed as O=C(/C=C\n1cnc(-c2cc(C(F)(F)F)cc(C(F)(F)F)c2)n1)NNc1cnccn1 [KPT-330, Selinexor, reference compound] shows solubility at 3 days equal to 0.00652

The molecule listed as O=C(/C=C\n1cnc(-c2cc(C(F)(F)F)cc(C(F)(F)F)c2)n1)N1CCCN1 [Compound 90] shows solubility at 3 days equal to 0.349

Record summary for CN1CCC2(CC1)CC(=O)N(NC(=O)/C=C\n1cnc(-c3cc(C(F)(F)F)cc(C(F)(F)F)c3)n1)C2 [Compound 23] : reported solubility at 3 days = 0.159

For record O=C(/C=C\n1cnc(-c2cc(C(F)(F)F)cc(C(F)(F)F)c2)n1)NN1CCOCC1=O [Compound 38] the listed solubility at 3 days is 0.0714

Noted for CN1C(=O)CCN1C(=O)/C=C\n1cnc(-c2cc(C(F)(F)F)cc(C(F)(F)F)c2)n1 [Compound 62] : its solubility at 3 days reads 0.22

###

Below: a set of entries, each annotated with reported average body weight D1.
Tested on: BxPC-3 xenografts
Assay: Anti-tumor growth efficacy in pancreatic tumor BxPC3 nude mice xenograft model
Type: in vivo
Settings: D1, first day of drug treatment; oral: KPT-330 and 38 10 mg/kg tiw, 79 2.5 mg/kg tiw, 62 10 mg/kg qd
All answers are understood in g, so give the number only.

INSERT INTO results (compound, subject_of_test, experimental_endpoint, reading) VALUES
  ('O=C(/C=C\n1cnc(-c2cc(C(F)(F)F)cc(C(F)(F)F)c2)n1)NN1CCOCC1=O', 'BxPC-3 xenografts', 'average body weight D1', 19.02),
  ('O=C(/C=C\n1cnc(-c2cc(C(F)(F)F)cc(C(F)(F)F)c2)n1)NNc1cnccn1 [KPT-330, Selinexor, reference compound]', 'BxPC-3 xenografts', 'average body weight D1', 19.97),
  ('CN1C(=O)CCN1C(=O)/C=C\n1cnc(-c2cc(C(F)(F)F)cc(C(F)(F)F)c2)n1', 'BxPC-3 xenografts', 'average body weight D1', 20.55);

Noted for COC1=CC(=O)N(NC(=O)/C=C\n2cnc(-c3cc(C(F)(F)F)cc(C(F)(F)F)c3)n2)C1 : its average body weight D1 reads 20.15
